- assay.details: Formation of solutions of nitrapyrin salts at 20% w/w nitrapyrin and grading of solutions
- Format: physicochemical
- Design: key: 5: Fully dissolved; 4: Mostly dissolved; 3: Mostly not dissolved; 2: Not dissolved; 1: Additional precipitate
- settings: solvent Rhodiasolv Polarclean (L)
Attribute: grading of solution
Enter the number alone.

Some compounds with known grading of solution results, for comparison:
- compound: "Clc1cccc(C(Cl)(Cl)Cl)n1.Clc1cccc(C(Cl)(Cl)Cl)n1.O=C(O)CC(O)C(=O)O"
  grading of solution: 5
- compound: "CC(O)(P(=O)(O)O)P(=O)(O)O.Clc1cccc(C(Cl)(Cl)Cl)n1.Clc1cccc(C(Cl)(Cl)Cl)n1.Clc1cccc(C(Cl)(Cl)Cl)n1.Clc1cccc(C(Cl)(Cl)Cl)n1"
  grading of solution: 5
- compound: "O=C(O)CCC(=O)O"
  grading of solution: 5

Exercise: Supply reported grading of solution belonging to this compound: O=C(O)C(O)C(O)C(=O)O (centres unmarked)
Key: 5

Exercise: Supply reported grading of solution belonging to this compound: `Clc1cccc(C(Cl)(Cl)Cl)n1.Clc1cccc(C(Cl)(Cl)Cl)n1.O=C(O)c1cccc(C(=O)O)c1`
Key: 3

###

Attribute: grading of solution
- assay.details: Formation of solutions of nitrapyrin salts at 20% w/w nitrapyrin and grading of solutions
- Format: physicochemical
- Design: key: 5: Fully dissolved; 4: Mostly dissolved; 3: Mostly not dissolved; 2: Not dissolved; 1: Additional precipitate
- settings: solvent Rhodiasolv ADMA10 (J)
Enter the number alone.

Some compounds with known grading of solution results, for comparison:
- compound: "O=C(O)C(O)C(O)C(=O)O (centres unmarked) [tartaric]"
  experimental.result: 5
- compound: "CC(O)(P(=O)(O)O)P(=O)(O)O.Clc1cccc(C(Cl)(Cl)Cl)n1.Clc1cccc(C(Cl)(Cl)Cl)n1.Clc1cccc(C(Cl)(Cl)Cl)n1.Clc1cccc(C(Cl)(Cl)Cl)n1 [etidronic]"
  experimental.result: 5
- compound: "Clc1cccc(C(Cl)(Cl)Cl)n1.Clc1cccc(C(Cl)(Cl)Cl)n1.O=C(O)c1cccc(C(=O)O)c1 [isophthalic]"
  experimental.result: 3
- compound: "Clc1cccc(C(Cl)(Cl)Cl)n1.Clc1cccc(C(Cl)(Cl)Cl)n1.O=C(O)CC(O)C(=O)O [malic]"
  experimental.result: 5

Then this compound:
Exercise: Supply reported grading of solution belonging to this compound: O=C(O)CCC(=O)O [succinic]
Key: 5

###

Attribute: grading of solution
- assay.details: Formation of solutions of nitrapyrin salts at 20% w/w nitrapyrin and grading of solutions
- Format: physicochemical
- Design: key: 5: Fully dissolved; 4: Mostly dissolved; 3: Mostly not dissolved; 2: Not dissolved; 1: Additional precipitate
- settings: solvent Rhodiasolv ADMA810 (K)
Enter the number alone.

Some compounds with known grading of solution results, for comparison:
- compound: "CC(O)(P(=O)(O)O)P(=O)(O)O.Clc1cccc(C(Cl)(Cl)Cl)n1.Clc1cccc(C(Cl)(Cl)Cl)n1.Clc1cccc(C(Cl)(Cl)Cl)n1.Clc1cccc(C(Cl)(Cl)Cl)n1"
  experimental.result: 4
- compound: "O=C(O)C(O)C(O)C(=O)O (centres unmarked)"
  experimental.result: 5
- compound: "O=C(O)CCC(=O)O"
  experimental.result: 5
- compound: "Clc1cccc(C(Cl)(Cl)Cl)n1.Clc1cccc(C(Cl)(Cl)Cl)n1.O=C(O)CC(O)C(=O)O"
  experimental.result: 5

Then this compound:
Exercise: Supply reported grading of solution belonging to this compound: `Clc1cccc(C(Cl)(Cl)Cl)n1.Clc1cccc(C(Cl)(Cl)Cl)n1.O=C(O)c1cccc(C(=O)O)c1`
Key: 3

###

Attribute: grading of solution
- assay.details: Formation of solutions of nitrapyrin salts at 20% w/w nitrapyrin and grading of solutions
- Format: physicochemical
- Set-up: key: 5: Fully dissolved; 4: Mostly dissolved; 3: Mostly not dissolved; 2: Not dissolved; 1: Additional precipitate
- settings: solvent PT700 (B)

Some compounds with known grading of solution results, for comparison:
- compound: "O=C(O)CCC(=O)O [succinic]"
  measured.quantity: "grading of solution"
  experimental.result: 4
- compound: "Clc1cccc(C(Cl)(Cl)Cl)n1.Clc1cccc(C(Cl)(Cl)Cl)n1.O=C(O)c1cccc(C(=O)O)c1 [isophthalic]"
  measured.quantity: "grading of solution"
  experimental.result: 2
- compound: "O=C(O)C(O)C(O)C(=O)O (centres unmarked) [tartaric]"
  measured.quantity: "grading of solution"
  experimental.result: 2
- compound: "Clc1cccc(C(Cl)(Cl)Cl)n1.Clc1cccc(C(Cl)(Cl)Cl)n1.O=C(O)CC(O)C(=O)O [malic]"
  measured.quantity: "grading of solution"
  experimental.result: 4

Then this compound:
Exercise: Supply reported grading of solution belonging to this compound: CC(O)(P(=O)(O)O)P(=O)(O)O.Clc1cccc(C(Cl)(Cl)Cl)n1.Clc1cccc(C(Cl)(Cl)Cl)n1.Clc1cccc(C(Cl)(Cl)Cl)n1.Clc1cccc(C(Cl)(Cl)Cl)n1 [etidronic]
Key: 4

###

- assay.details: Formation of solutions of nitrapyrin salts at 20% w/w nitrapyrin and grading of solutions
- Assay type: physicochemical
- Design: key: 5: Fully dissolved; 4: Mostly dissolved; 3: Mostly not dissolved; 2: Not dissolved; 1: Additional precipitate
- settings: solvent tripropylene glycol (E)
Attribute: grading of solution
Enter the number alone.

Some compounds with known grading of solution results, for comparison:
- compound: "Clc1cccc(C(Cl)(Cl)Cl)n1.Clc1cccc(C(Cl)(Cl)Cl)n1.O=C(O)c1cccc(C(=O)O)c1 [isophthalic]"
  experimental.result: 4
- compound: "O=C(O)C(O)C(O)C(=O)O (centres unmarked) [tartaric]"
  experimental.result: 2

Exercise: Supply reported grading of solution belonging to this compound: CC(O)(P(=O)(O)O)P(=O)(O)O.Clc1cccc(C(Cl)(Cl)Cl)n1.Clc1cccc(C(Cl)(Cl)Cl)n1.Clc1cccc(C(Cl)(Cl)Cl)n1.Clc1cccc(C(Cl)(Cl)Cl)n1 [etidronic]
Key: 1

Exercise: Supply reported grading of solution belonging to this compound: O=C(O)CCC(=O)O [succinic]
Key: 3

Exercise: Supply reported grading of solution belonging to this compound: Clc1cccc(C(Cl)(Cl)Cl)n1.Clc1cccc(C(Cl)(Cl)Cl)n1.O=C(O)CC(O)C(=O)O [malic]
Key: 2

###

Attribute: grading of solution
- assay.details: Formation of solutions of nitrapyrin salts at 20% w/w nitrapyrin and grading of solutions
- Format: physicochemical
- Set-up: key: 5: Fully dissolved; 4: Mostly dissolved; 3: Mostly not dissolved; 2: Not dissolved; 1: Additional precipitate
- settings: solvent dipropylene glycol (A)
Enter the number alone.

Some compounds with known grading of solution results, for comparison:
- compound: "O=C(O)CCC(=O)O"
  grading of solution: 3
- compound: "Clc1cccc(C(Cl)(Cl)Cl)n1.Clc1cccc(C(Cl)(Cl)Cl)n1.O=C(O)CC(O)C(=O)O"
  grading of solution: 2
- compound: "CC(O)(P(=O)(O)O)P(=O)(O)O.Clc1cccc(C(Cl)(Cl)Cl)n1.Clc1cccc(C(Cl)(Cl)Cl)n1.Clc1cccc(C(Cl)(Cl)Cl)n1.Clc1cccc(C(Cl)(Cl)Cl)n1"
  grading of solution: 1
- compound: "Clc1cccc(C(Cl)(Cl)Cl)n1.Clc1cccc(C(Cl)(Cl)Cl)n1.O=C(O)c1cccc(C(=O)O)c1"
  grading of solution: 2

Then this compound:
Exercise: Supply reported grading of solution belonging to this compound: O=C(O)C(O)C(O)C(=O)O (centres unmarked)
Key: 2

###

- assay.details: Formation of solutions of nitrapyrin salts at 20% w/w nitrapyrin and grading of solutions
- Type: physicochemical
- Parameters: key: 5: Fully dissolved; 4: Mostly dissolved; 3: Mostly not dissolved; 2: Not dissolved; 1: Additional precipitate
- settings: solvent Agnique AMD3L (I)
measured.quantity: grading of solution
Enter the number alone.

- compound: "CC(O)(P(=O)(O)O)P(=O)(O)O.Clc1cccc(C(Cl)(Cl)Cl)n1.Clc1cccc(C(Cl)(Cl)Cl)n1.Clc1cccc(C(Cl)(Cl)Cl)n1.Clc1cccc(C(Cl)(Cl)Cl)n1"
  grading of solution: 5
- compound: "Clc1cccc(C(Cl)(Cl)Cl)n1.Clc1cccc(C(Cl)(Cl)Cl)n1.O=C(O)c1cccc(C(=O)O)c1"
  grading of solution: 3
- compound: "O=C(O)C(O)C(O)C(=O)O (centres unmarked)"
  grading of solution: 5
- compound: "O=C(O)CCC(=O)O"
  grading of solution: 5

Then this compound:
Exercise: Supply reported grading of solution belonging to this compound: `Clc1cccc(C(Cl)(Cl)Cl)n1.Clc1cccc(C(Cl)(Cl)Cl)n1.O=C(O)CC(O)C(=O)O`
Key: 5

###

- assay.details: Formation of solutions of nitrapyrin salts at 20% w/w nitrapyrin and grading of solutions
- Assay type: physicochemical
- Design: key: 5: Fully dissolved; 4: Mostly dissolved; 3: Mostly not dissolved; 2: Not dissolved; 1: Additional precipitate
- settings: solvent triethylene glycol (D)
Attribute: grading of solution
Enter the number alone.

- molecule: "O=C(O)C(O)C(O)C(=O)O (centres unmarked) [tartaric]"
  measured.quantity: "grading of solution"
  experimental.result: 1
- molecule: "Clc1cccc(C(Cl)(Cl)Cl)n1.Clc1cccc(C(Cl)(Cl)Cl)n1.O=C(O)c1cccc(C(=O)O)c1 [isophthalic]"
  measured.quantity: "grading of solution"
  experimental.result: 1
- molecule: "O=C(O)CCC(=O)O [succinic]"
  measured.quantity: "grading of solution"
  experimental.result: 2

Exercise: Supply reported grading of solution belonging to this molecule: CC(O)(P(=O)(O)O)P(=O)(O)O.Clc1cccc(C(Cl)(Cl)Cl)n1.Clc1cccc(C(Cl)(Cl)Cl)n1.Clc1cccc(C(Cl)(Cl)Cl)n1.Clc1cccc(C(Cl)(Cl)Cl)n1 [etidronic]
Key: 1

Exercise: Supply reported grading of solution belonging to this molecule: Clc1cccc(C(Cl)(Cl)Cl)n1.Clc1cccc(C(Cl)(Cl)Cl)n1.O=C(O)CC(O)C(=O)O [malic]
Key: 2
